Tested on: MRC-5 (human fetal lung fibroblasts, non-tumor)
Assay: MTT proliferation assay, MRC-5
Type: cell-based
Settings: MRC5, 72 h treatment
Quantity Kind: IC50

>>> experimental_value("Cl.Cl.Cl.N=C(N)c1ccc2[nH]c(-c3ccc(OCc4cn(CCNc5ccnc6cc(Cl)ccc56)nn4)cc3)nc2c1 [Compound 14d]")
"> 100 µM"
>>> experimental_value("COc1ccc2[nH]c(-c3ccc(OCc4cn(-c5ccnc6cc(Cl)ccc56)nn4)c(Br)c3)nc2c1 [Compound 10c]")
"8.54 µM"
>>> experimental_value("Clc1ccc2[nH]c(-c3ccc(OCc4cn(CCNc5ccnc6cc(Cl)ccc56)nn4)cc3)nc2c1 [Compound 14b]")
"> 100 µM"
>>> experimental_value("Cl.Cl.Cl.N=C(N)c1ccc2[nH]c(-c3ccc(OCc4cn(-c5ccnc6cc(Cl)ccc56)nn4)c(Br)c3)nc2c1 [Compound 10d]")
"> 100 µM"
>>> experimental_value("COc1ccc2[nH]c(-c3ccc(OCc4cn(CCNc5ccnc6cc(Cl)ccc56)nn4)c(Br)c3)nc2c1 [Compound 15c]")
"> 100 µM"
>>> experimental_value("CCCNC(=N)c1ccc2[nH]c(-c3ccc(OCc4cn(CCNc5ccnc6cc(Cl)ccc56)nn4)c(Br)c3)nc2c1.Cl.Cl.Cl [Compound 15e]")
"> 100 µM"
